# system under test: V2 Receptor (Rattus norvegicus, UniProt Q00788)
# Construct: rat kidney plasma membrane preparations
# Sequence (Q00788 whole entry): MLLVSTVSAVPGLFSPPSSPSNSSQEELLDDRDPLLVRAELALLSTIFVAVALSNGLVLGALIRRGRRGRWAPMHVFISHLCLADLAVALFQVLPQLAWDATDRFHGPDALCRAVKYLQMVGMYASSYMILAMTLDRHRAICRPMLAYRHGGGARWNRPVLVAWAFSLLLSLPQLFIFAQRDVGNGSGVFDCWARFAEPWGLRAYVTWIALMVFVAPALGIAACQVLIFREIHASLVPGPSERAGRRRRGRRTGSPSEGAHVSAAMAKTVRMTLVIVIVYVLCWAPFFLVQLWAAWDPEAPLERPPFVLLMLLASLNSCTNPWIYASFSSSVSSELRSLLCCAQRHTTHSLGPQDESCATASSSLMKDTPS
# experiment summary: V2 Receptor Binding Assay ([3H]-Arg-vasopressin, rat kidney plasma membrane)
# test conditions: 4° C., pH 8.0
Counter-ions that a name gives are not always drawn.
Binary call on IC50 with cut-off 8 nM: strictly below means condition met, and equality or higher means condition not met.

Task item: Is 8 nM strictly greater than the molecule's reported IC50? molecule: CC(=O)N1CCN(CCC2CCCN(C(=O)c3ccc(NC(=O)c4ccccc4C)cc3C)c3ccc(Cl)cc32)CC1 (stereo not drawn) [Test Compound 53, hydrochloride]
Reply: condition not met

Task item: Is 8 nM strictly greater than the molecule's reported IC50? molecule: COc1cc(NC(=O)c2ccccc2C)ccc1C(=O)N1CCCC(CC(=O)N2CCN(C)CC2)c2cc(Cl)ccc21 (stereo not drawn) [Test Compound 63]
Reply: condition not met

Task item: Is 8 nM strictly greater than the molecule's reported IC50? molecule: COc1cc(NC(=O)c2ccccc2Cl)ccc1C(=O)N1CCCC(CC(=O)NC2CCN(Cc3ccccc3)CC2)c2cc(Cl)ccc21 (stereo not drawn) [Test Compound 48, hydrochloride]
Reply: condition not met

Task item: Is 8 nM strictly greater than the molecule's reported IC50? molecule: COc1cc(NC(=O)c2ccccc2C)ccc1C(=O)N1CCCC(OCCN2CCN(C(C)=O)CC2)c2cc(Cl)ccc21 (stereo not drawn) [Test Compound 40, hydrochloride]
Reply: condition met

Task item: Is 8 nM strictly greater than the molecule's reported IC50? molecule: Cc1ccccc1C(=O)Nc1ccc(C(=O)N2CCCC(CC(=O)NCC(N)=O)c3cc(Cl)ccc32)c(C)c1 (stereo not drawn) [Test Compound 62]
Reply: condition met
